- Tested on: U87-MG
- test-name: Cellular proliferation assay (Alamar blue), U87-MG
- Format: cell-based
- test-settings: Homo sapiens, U-87 MG; U87-MG cells; 10% FCS; 72 h with compound; Alamar blue 6 h; read-out: pIC50 U87MG (converted)
Collected IC50 values appear next to each entry.

1. O=C1CCCOc2cc(ccc2Cl)Nc2ncnc3[nH]cc(c23)CN2CCN1CC2 [Compound 106] :: > 10 µM
2. CN1CCCN(C)C(=O)CCCCCOc2cc(ccc2Cl)Nc2ncnc3[nH]cc(c23)C1 [Compound 19] :: > 10 µM
3. CN1CCN(c2ccc3cc2OCC(=O)N(C)CCCN(C)Cc2c[nH]c4ncnc(c24)N3)CC1 [Compound 84] :: 1.26 µM
4. CCOCCOc1ccc2cc1OCC(=O)N(C)CCCN(C)Cc1cn(C)c3ncnc(c13)N2 [Compound 81] :: 0.501 µM

**Q:** Tell me the measured IC50 of CC(C)NC(=O)Nc1ccc2cc1OCC(=O)N(C)CCCN(C)Cc1c[nH]c3ncnc(c13)N2 [Compound 122] , please.
**A:** > 10 µM

**Q:** Input CN1CCCN(C)C(=O)COc2cc(ccc2Cl)Nc2ncnc3c2c(cn3C)C1 [Compound 146]
**A:** > 10 µM

**Q:** Input COc1cc2cc(c1OC)CCC(=O)N(C)CCN(C)Cc1c[nH]c3ncnc(c13)N2 [Compound 47]
**A:** > 10 µM

**Q:** Input COc1cc2cc(c1OC)OCCCCC(=O)N(C)CCN(C)Cc1c[nH]c3ncnc(c13)N2 [Compound 87]
**A:** > 10 µM

**Q:** Input CN1CCCN(C)C(=O)CCc2cc(ccc2N2CCOCC2)Nc2ncnc3[nH]cc(c23)C1 [Compound 56]
**A:** > 10 µM

**Q:** Input O=C1CCCCOc2cc(ccc2N2CCOCC2)Nc2ncnc3[nH]cc(c23)CN2CCN1CC2 [Compound 121]
**A:** > 10 µM

**Q:** Input COc1ccc2cc1OCC(=O)N(C(C)C)CCCN(C)Cc1c[nH]c3ncnc(c13)N2 [Compound 12]
**A:** 6.31 µM

**Q:** Input CN1CCCN(C)C(=O)COc2cc(ccc2OCC(=O)NC2CC2)Nc2ncnc3[nH]cc(c23)C1 [Compound 125]
**A:** > 10 µM

**Q:** Input COc1ccc2cc1OCC(=O)N[C@@H](C)CN(C)CCCc1c[nH]c3ncnc(c13)N2 [Compound 28]
**A:** > 10 µM

**Q:** Input CN1CCN(C)C(=O)CCCOc2cc(ccc2Cl)Nc2ncnc3[nH]cc(c23)C1 [Compound 42]
**A:** > 10 µM

**Q:** Input COc1ccc2cc1OCC(=O)N1CCC[C@H]1CN(C)CCCc1c[nH]c3ncnc(c13)N2 [Compound 27]
**A:** > 10 µM

**Q:** Input O=C1CCCCOc2cc(ccc2Cl)Nc2ncnc3[nH]cc(c23)CN2CCN1CC2 [Compound 104]
**A:** > 10 µM

**Q:** Input COc1ccc2cc1OCC(=O)N(C)CCCNCc1c[nH]c3ncnc(c13)N2 [Compound 65]
**A:** > 10 µM

----------
- System: H1299
- test-name: Cellular proliferation assay (Alamar blue), H1299
- Type: cell-based
- test-settings: Homo sapiens, NCI-H1299, H1299 cells; 10% FCS; 72 h with compound; Alamar blue 4 h; read-out: pIC50 H1299 (converted)
- Method: Cellular proliferation of these compounds was tested on a panel of different cell lines in the presence of 10% FCS serum (37° C. and 5% (v/v) CO2). In a first step these cells were seeded and incubated for 24 hours in the absence of compound. In the second step the cells were incubated for 72 hours with the compounds to be tested for 72 hours. The viable cell number was finally assessed in a standard Alamar blue cell viability assay. […]
Collected IC50 values appear next to each entry.

1. COc1ccc2cc1OCCCC(=O)N1CCN(CC1)Cc1c[nH]c3ncnc(c13)N2 [Compound 105] :: > 10 µM
2. CN1CCN(C)C(=O)CN(C)C(=O)CCc2cccc(c2)Nc2ncnc3[nH]cc(c23)C1 [Compound 8] :: > 10 µM
3. COCCN1CC(=O)N(C)CCCc2c[nH]c3ncnc(c23)Nc2ccc(OC)c(c2)C1 [Compound 36] :: > 10 µM
4. COc1cc2cc(c1OC)CCC(=O)N(C)CCN(C)Cc1c[nH]c3ncnc(c13)N2 [Compound 47] :: > 10 µM

**Q:** What measured IC50 is associated with COc1ccc2cc1OCC(=O)N(C)CCN(C)Cc1c[nH]c3ncnc(c13)N2 [Compound 10] on H1299?
**A:** > 10 µM

**Q:** Input COc1cc2cc(c1OC)CCC(=O)N(C)CCCN(C)Cc1c[nH]c3ncnc(c13)N2 [Compound 30]
**A:** > 10 µM

**Q:** Input COc1ccc(OCCCOc2ccc3cc2OCC(=O)N(C)CCCN(C)Cc2c[nH]c4ncnc(c24)N3)cc1 [Compound 78]
**A:** 2.51 µM

**Q:** Input COc1cc2cc(c1OC)OCCCCC(=O)N1CCN(CC1)Cc1c[nH]c3ncnc(c13)N2 [Compound 111]
**A:** > 10 µM

**Q:** Input CN1CCCN(C)C(=O)COc2cc(ccc2OCCNc2ccc(Cl)cc2)Nc2ncnc3[nH]cc(c23)C1 [Compound 79]
**A:** 0.794 µM

**Q:** Input CN1CCCN(C)C(=O)COc2cc(ccc2OCCN2CCCCC2)Nc2ncnc3[nH]cc(c23)C1 [Compound 136]
**A:** 5.01 µM

----------
Collected IC50 values appear next to each entry.
- Test system: U87-MG
- test-name: Cellular proliferation assay (Alamar blue), U87-MG
- Assay type: cell-based
- test-settings: Homo sapiens, U-87 MG; U87-MG cells; 10% FCS; 72 h with compound; Alamar blue 6 h; read-out: pIC50 U87MG (converted)
Numbers only here, please. The scale is µM.

Observe how each entry below is paired with its result.
1) CN1CCCN(C)C(=O)COc2cc(ccc2OCCNc2ccc(Cl)cc2)Nc2ncnc3[nH]cc(c23)C1 :: 3.16
2) CN1CCCN(C)C(=O)COc2cc(ccc2OCCSc2nccn2C)Nc2ncnc3[nH]cc(c23)C1 :: 3.16

**Q:** What measured IC50 is associated with `Cc1nc2c3c(c[nH]c3n1)CN(C)CCCN(C)C(=O)COc1cc(ccc1Cl)N2` on U87-MG?
**A:** 3.16

**Q:** Input `CN1CCCN(C)C(=O)COc2cc(ccc2NC(=O)NC2CCCCC2)Nc2ncnc3[nH]cc(c23)C1`
**A:** 3.98

**Q:** Input `COc1ccc(OCCCOc2ccc3cc2OCC(=O)N(C)CCCN(C)Cc2c[nH]c4ncnc(c24)N3)cc1`
**A:** 3.98

**Q:** Input `CN1CCCN(C)C(=O)COc2cc(ccc2OCCCN2CCOCC2)Nc2ncnc3[nH]cc(c23)C1`
**A:** 1.58

----------
- Tested on: PC3
- test-name: Cellular proliferation assay (Alamar blue), PC3
- Format: cell-based
- test-settings: Homo sapiens, PC-3, PC-3 cells; 10% FCS; 72 h with compound; Alamar blue 24 h; read-out: pIC50 PC-3 (converted)
Collected IC50 values appear next to each entry.

Observe how each entry below is paired with its result.
1) CN1CCCN(C)C(=O)COc2cc(ccc2OCCNc2nccs2)Nc2ncnc3[nH]cc(c23)C1 [Compound 156] :: 3.16 µM
2) COc1ccc2cc1OCC(=O)N[C@H](CO)CN(C)CCCc1c[nH]c3ncnc(c13)N2 [Compound 3] :: > 10 µM
3) COc1ccc2cc1OCC(=O)N(C)CCCN(Cc1ccncc1)Cc1c[nH]c3ncnc(c13)N2 [Compound 62] :: > 10 µM
4) Cc1nc2c3c(c[nH]c3n1)CN(C)CCCN(C)C(=O)COc1cc(ccc1Cl)N2 [Compound 148] :: 5.01 µM
5) CN1CCN(C)C(=O)CCCCOc2cc(ccc2Cl)Nc2ncnc3[nH]cc(c23)C1 [Compound 49] :: > 10 µM

**Q:** Tell me the measured IC50 of CN1CCN(C)C(=O)CCCCOc2cc(cc(C(F)(F)F)c2)Nc2ncnc3[nH]cc(c23)C1 [Compound 92] , please.
**A:** > 10 µM

**Q:** Input O=C1CCCCOc2cc(ccc2N2CCOCC2)Nc2ncnc3[nH]cc(c23)CN2CCN1CC2 [Compound 121]
**A:** > 10 µM

**Q:** Input COc1cc2cc(c1OC)OCC(=O)N(C)CCCN(C)Cc1c[nH]c3ncnc(c13)N2 [Compound 57]
**A:** > 10 µM

**Q:** Input COc1ccc2cc1CN(C)CCC(=O)N(C)CCCc1c[nH]c3ncnc(c13)N2 [Compound 4]
**A:** > 10 µM

**Q:** Input COc1ccc2cc1OCC(=O)N(C)CCN(C)CCCc1c[nH]c3ncnc(c13)N2 [Compound 60]
**A:** > 10 µM
